Tested on: Glycine max
Experiment: Crop compatibility post-emergence (greenhouse pot trial)
Format: in vivo
Details: application rate 20 g/ha
Measured Parameter: Glycine max (Efficacy in %)

Compound | Measured Parameter | Recorded Number
CC(Sc1cc(-n2c(=O)cc(C(F)(F)F)n(C)c2=O)c(F)cc1Cl)C(=O)NCC1CS(=O)(=O)CCO1 (stereo not shown) [I.1-333] | Glycine max (Efficacy in %) | 20
Cc1c(C(F)(F)F)n(C)c(=O)n(-c2cc(SC(CC(C)C)C(=O)OCC3CCOC3)c(Cl)cc2F)c1=O (stereo not shown) [I.14-72] | Glycine max (Efficacy in %) | 20
CC(Sc1cc(-n2c(=O)cc(C(F)(F)F)n(C)c2=O)c(F)cc1Cl)C(=O)NC1(C#N)CCSC1 (stereo not shown) [I.1-340] | Glycine max (Efficacy in %) | 20
Cc1c(C(F)(F)F)n(C)c(=O)n(-c2cc(SC(CC(C)C)C(=O)OCC3CCCO3)c(Cl)cc2F)c1=O (stereo not shown) [I.14-71] | Glycine max (Efficacy in %) | 0

* * *

Reported Triticum aestivum (Efficacy in %) is given for each of the following compounds.
Test system: Triticum aestivum
Test: Crop compatibility post-emergence (greenhouse pot trial)
Format: in vivo
Details: application rate 20 g/ha
Source text: Seeds of mono- and dicotyledonous weed plants and crop plants are laid out in sandy loam soil in plastic or wood-fiber pots, covered with earth and grown under controlled growth conditions in a greenhouse. […] After the trial plants had stood for about 3 weeks in the greenhouse, under optimal growth conditions, the effect of the preparations was scored visually by comparison with untreated controls. […] Crop plant compatibilities were also scored correspondingly. […]

Compound | Triticum aestivum (Efficacy in %)
CC(Sc1cc(-n2c(=O)cc(C(F)(F)F)n(C)c2=O)c(F)cc1Cl)C(=O)NCC1CCCO1 (stereo not shown) [I.1-221] | 20%
CC1CC(COC(=O)C(C)(C)CSc2cc(-n3c(=O)cc(C(F)(F)F)n(C)c3=O)c(F)cc2Cl)CO1 (stereo not shown) | 0%
Cn1c(C(F)(F)F)cc(=O)n(-c2cc(SCC(C)(C)C(=O)OC3CCOC3)c(Cl)cc2F)c1=O (stereo not shown) | 0%
CCC(C)C(Sc1cc(-n2c(=O)cc(C(F)(F)F)n(C)c2=O)c(F)cc1Cl)C(=O)OCC1CCCO1 (stereo not shown) | 10%

* * *

Listing of entries alongside the reported Glycine max (Efficacy in %).
Tested on: Glycine max
Assay: Crop compatibility post-emergence (greenhouse pot trial)
Format: in vivo
Conditions: application rate 5 g/ha
Measured Parameter: Glycine max (Efficacy in %)

Compound | Recorded Number
CCC(Sc1cc(-n2c(=O)c(C)c(C(F)(F)F)n(C)c2=O)c(F)cc1Cl)C(=O)OCC1CCOC1 (stereo not drawn) | 20
COCCOC(=O)CSc1cc(-n2c(=O)cc(C(F)(F)F)n(C)c2=O)c(F)cc1Cl | 20
CC(Sc1cc(-n2c(=O)cc(C(F)(F)F)n(C)c2=O)c(F)cc1Cl)C(=O)NCC1CCOC1(C)C (stereo not drawn) | 20
CC(Sc1cc(-n2c(=O)cc(C(F)(F)F)n(C)c2=O)c(F)cc1Cl)C(=O)NCC1CCCO1 (stereo not drawn) | 20
CC(C)CC(Sc1cc(-n2c(=O)cc(C(F)(F)F)n(C)c2=O)c(F)cc1Cl)C(=O)NCC1CCCO1 (stereo not drawn) | 20
CCC(Sc1cc(-n2c(=O)c(C)c(C(F)(F)F)n(C)c2=O)c(F)cc1Cl)C(=O)OCC1CCCCO1 (stereo not drawn) | 0

* * *

Each item that follows carries a reported Oryza sativa (Efficacy in %).
System: Oryza sativa
Assay: Crop compatibility pre-emergence (greenhouse pot trial)
Type: in vivo
Settings: application rate 20 g/ha, effect vs untreated controls

Compound | Readout Units | Oryza sativa (Efficacy in %)
CCC(Sc1cc(-n2c(=O)cc(C(F)(F)F)n(C)c2=O)c(F)cc1Cl)C(=O)OCC1CCCO1 (stereo not shown) [I.2-71] | % | 0
CC(Sc1cc(-n2c(=O)cc(C(F)(F)F)n(C)c2=O)c(F)cc1Cl)C(=O)NCC1(C)CCCO1 (stereo not shown) [I.1-224] | % | 0
CC(Sc1cc(-n2c(=O)cc(C(F)(F)F)n(C)c2=O)c(F)cc1Cl)C(=O)NCC1CCCO1 (stereo not shown) [I.1-271] | % | 20
CSCCNC(=O)C(C)Sc1cc(-n2c(=O)cc(C(F)(F)F)n(C)c2=O)c(F)cc1Cl (stereo not shown) [I.1-181] | % | 0

* * *

Test system: Zea mays
Experiment: Crop compatibility pre-emergence (greenhouse pot trial)
Type: in vivo
Settings: application rate 80 g/ha, effect vs untreated controls
The entries below are paired with their reported Zea mays (Efficacy in %).

Compound | Zea mays (Efficacy in %)
CC(Sc1cc(-n2c(=O)cc(C(F)(F)F)n(C)c2=O)c(F)cc1Cl)C(=O)NCC1CS(=O)(=O)CCO1 (centres unmarked) | 20
CC(Sc1cc(-n2c(=O)cc(C(F)(F)F)n(C)c2=O)c(F)cc1Cl)C(=O)NC1(C#N)CCSC1 (centres unmarked) | 0
CC(Sc1cc(-n2c(=O)cc(C(F)(F)F)n(C)c2=O)c(F)cc1Cl)C(=O)NCC1CCOC1(C)C (centres unmarked) | 0
Cn1c(C(F)(F)F)cc(=O)n(-c2cc(SCC(=O)NCC3CCCO3)c(Cl)cc2F)c1=O (centres unmarked) | 20
CON(C(=O)C(C)Sc1cc(-n2c(=O)cc(C(F)(F)F)n(C)c2=O)c(F)cc1Cl)C1CCOC1 (centres unmarked) | 0
CC(Sc1cc(-n2c(=O)cc(C(F)(F)F)n(C)c2=O)c(F)cc1Cl)C(=O)OCC1CCCO1 (centres unmarked) | 0
CC(Sc1cc(-n2c(=O)cc(C(F)(F)F)n(C)c2=O)c(F)cc1Cl)C(=O)OCC1CCSC1 (centres unmarked) | 0
COCCCOC(=O)C(C)Sc1cc(-n2c(=O)cc(C(F)(F)F)n(C)c2=O)c(F)cc1Cl (centres unmarked) | 10

* * *

Overview of recorded Setaria viridis (Efficacy in %) for various molecules
Test system: Setaria viridis
Test: Herbicidal action post-emergence (greenhouse pot trial)
Format: in vivo
Details: application rate 20 g/ha, scored visually after about 3 weeks vs untreated controls
Measured Parameter: Setaria viridis (Efficacy in %)

Molecule | Measured Parameter | Readout Units | Recorded Number
CCC(C)C(Sc1cc(-n2c(=O)cc(C(F)(F)F)n(C)c2=O)c(F)cc1Cl)C(=O)OCC1CCCO1 (stereo not shown) | Setaria viridis (Efficacy in %) | % | 90
CC(Sc1cc(-n2c(=O)cc(C(F)(F)F)n(C)c2=O)c(F)cc1Cl)C(=O)OCCCSC(F)(F)F (stereo not shown) | Setaria viridis (Efficacy in %) | % | 100
CC(Sc1cc(-n2c(=O)cc(C(F)(F)F)n(C)c2=O)c(F)cc1Cl)C(=O)OC1CCOC1 (stereo not shown) | Setaria viridis (Efficacy in %) | % | 100
CCC(C)C(Sc1cc(-n2c(=O)cc(C(F)(F)F)n(C)c2=O)c(F)cc1Cl)C(=O)NCC1CCCO1 (stereo not shown) | Setaria viridis (Efficacy in %) | % | 100

* * *

Tested on: Triticum aestivum
Test: Crop compatibility post-emergence (greenhouse pot trial)
Format: in vivo
Settings: application rate 20 g/ha
Measured Triticum aestivum (Efficacy in %) values are reported for all entries that follow.
Measured Parameter: Triticum aestivum (Efficacy in %)

Compound | Recorded Number
CC(Sc1cc(-n2c(=O)cc(C(F)(F)F)n(C)c2=O)c(F)cc1Cl)C(=O)OCC1CCCS1 (stereo not shown) [I.1-81] | 20
CC(Sc1cc(-n2c(=O)cc(C(F)(F)F)n(C)c2=O)c(F)cc1Cl)C(=O)NCCCOCc1ccccc1 (stereo not shown) [I.1-180] | 20
CC(Sc1cc(-n2c(=O)cc(C(F)(F)F)n(C)c2=O)c(F)cc1Cl)C(=O)OC1CCSC1 (stereo not shown) [I.1-123] | 20
CC(Sc1cc(-n2c(=O)cc(C(F)(F)F)n(C)c2=O)c(F)cc1Cl)C(=O)NC1(C#N)CCSC1 (stereo not shown) [I.1-340] | 20
Cc1c(C(F)(F)F)n(C)c(=O)n(-c2cc(SC(CC(C)C)C(=O)OCC3CCCCO3)c(Cl)cc2F)c1=O (stereo not shown) [I.14-91] | 20
Cn1c(C(F)(F)F)cc(=O)n(-c2cc(SCC(C)(C)C(=O)OCC3CCOC3)c(Cl)cc2F)c1=O (stereo not shown) [I.48-72] | 20
Cn1c(C(F)(F)F)cc(=O)n(-c2cc(SCC(C)(C)C(=O)OCC3CCCOC3)c(Cl)cc2F)c1=O (stereo not shown) [I.48-92] | 0
CC(C)C(Sc1cc(-n2c(=O)cc(C(F)(F)F)n(C)c2=O)c(F)cc1Cl)C(=O)OCC1CCCO1 (stereo not shown) [I.6-71] | 20
CCC(Sc1cc(-n2c(=O)cc(C(F)(F)F)n(C)c2=O)c(F)cc1Cl)C(=O)OCC1CCCS1 (stereo not shown) [I.2-81] | 20
CC(Sc1cc(-n2c(=O)cc(C(F)(F)F)n(C)c2=O)c(F)cc1Cl)C(=O)NCC1CCCO1 (stereo not shown) [I.1-271] | 20
Cc1c(C(F)(F)F)n(C)c(=O)n(-c2cc(SC(CC(C)C)C(=O)OCC3CCOC3)c(Cl)cc2F)c1=O (stereo not shown) [I.14-72] | 20
CCC(C)C(Sc1cc(-n2c(=O)cc(C(F)(F)F)n(C)c2=O)c(F)cc1Cl)C(=O)OCC1CCCCO1 (stereo not shown) [I.5-91] | 10
CC(Sc1cc(-n2c(=O)cc(C(F)(F)F)n(C)c2=O)c(F)cc1Cl)C(=O)OCC1CCCOC1 (stereo not shown) [I.1-92] | 10
CCC(C)C(Sc1cc(-n2c(=O)cc(C(F)(F)F)n(C)c2=O)c(F)cc1Cl)C(=O)NCC1CCCO1 (stereo not shown) [I.5-221] | 20
Cc1c(C(F)(F)F)n(C)c(=O)n(-c2cc(SCC(C)(C)C(=O)NCC3CCCCO3)c(Cl)cc2F)c1=O (stereo not shown) [I.54-241] | 0
CC(CC(=O)OCC1CCCO1)Sc1cc(-n2c(=O)cc(C(F)(F)F)n(C)c2=O)c(F)cc1Cl (stereo not shown) [I.49-71] | 20
